Below, each of the compounds is paired with its reported FICI maximum value.
tested on: Saccharomyces cerevisiae ZIM 2255 (RPMI); assay: FICI maximum (fractional inhibitory concentration index, Loewe) (dimensionless); higher = less synergy / more antagonism; conditions: temperature: 37 °C
No unit in the answer, please; the number alone is enough.

INSERT INTO assay_data (compound, number) VALUES
  ('CN(Cc1cnc2nc(N)nc(N)c2n1)c1ccc(C(=O)N[C@@H](CCC(=O)O)C(=O)O)cc1 [methotrexate] + CCC(C)n1ncn(-c2ccc(N3CCN(c4ccc(OCC5COC(Cn6cncn6)(c6ccc(Cl)cc6Cl)O5)cc4)CC3)cc2)c1=O [itraconazole]', 1.08),
  ('COc1c(C)c2c(c(O)c1C/C=C(\C)CCC(=O)O)C(=O)OC2 [mycophenolic acid] + OC(Cn1cncn1)(Cn1cncn1)c1ccc(F)cc1F [fluconazole]', 2.02),
  ('C=CC[C@@H]1/C=C(\C)C[C@H](C)C[C@H](OC)[C@H]2O[C@@](O)(C(=O)C(=O)N3CCCC[C@H]3C(=O)O[C@H](/C(C)=C/[C@@H]3CC[C@@H](O)[C@H](OC)C3)[C@H](C)[C@@H](O)CC1=O)[C@H](C)C[C@@H]2OC [tacrolimus] + OC(Cn1cncn1)(Cn1cncn1)c1ccc(F)cc1F [fluconazole]', 1);

Qu. Look up FICI maximum for this compound: CC1(C)S[C@@H]2[C@H](NC(=O)[C@H](N)c3ccc(O)cc3)C(=O)N2[C@H]1C(=O)O [amoxicillin] + CCC(C)n1ncn(-c2ccc(N3CCN(c4ccc(OCC5COC(Cn6cncn6)(c6ccc(Cl)cc6Cl)O5)cc4)CC3)cc2)c1=O [itraconazole]
Ans. 1.25

---

tested on: Candida glabrata ZIM 2389 (RPMI); assay: Bliss independence sum of statistically significant ΔE (measured minus predicted growth inhibition) over checkerboard surface (fraction (sum of ΔE; 1 = 100%)); higher = more synergy; conditions: temperature: 37 °C
assayEndpoint: Bliss independence sum
No unit in the answer, please; the number alone is enough.

Take a look at these entries with their results.
INSERT INTO assay_data (compound, number) VALUES
  ('COc1c(C)c2c(c(O)c1C/C=C(\C)CCC(=O)O)C(=O)OC2 [mycophenolic acid] + CCC(C)n1ncn(-c2ccc(N3CCN(c4ccc(OCC5COC(Cn6cncn6)(c6ccc(Cl)cc6Cl)O5)cc4)CC3)cc2)c1=O [itraconazole]', 4.83),
  ('CN(Cc1cnc2nc(N)nc(N)c2n1)c1ccc(C(=O)N[C@@H](CCC(=O)O)C(=O)O)cc1 [methotrexate] + OC(Cn1cncn1)(Cn1cncn1)c1ccc(F)cc1F [fluconazole]', 0.272),
  ('C=CC[C@@H]1/C=C(\C)C[C@H](C)C[C@H](OC)[C@H]2O[C@@](O)(C(=O)C(=O)N3CCCC[C@H]3C(=O)O[C@H](/C(C)=C/[C@@H]3CC[C@@H](O)[C@H](OC)C3)[C@H](C)[C@@H](O)CC1=O)[C@H](C)C[C@@H]2OC [tacrolimus] + CCC(C)n1ncn(-c2ccc(N3CCN(c4ccc(OCC5COC(Cn6cncn6)(c6ccc(Cl)cc6Cl)O5)cc4)CC3)cc2)c1=O [itraconazole]', 8.47);

Now for another entry.
Qu. Look up Bliss independence sum for this compound: CN(Cc1cnc2nc(N)nc(N)c2n1)c1ccc(C(=O)N[C@@H](CCC(=O)O)C(=O)O)cc1 [methotrexate] + CCC(C)n1ncn(-c2ccc(N3CCN(c4ccc(OCC5COC(Cn6cncn6)(c6ccc(Cl)cc6Cl)O5)cc4)CC3)cc2)c1=O [itraconazole]
Ans. 0.179

---

Below, each of the molecules is paired with its reported FICI minimum value.
test system: Candida glabrata ZIM 2385 (RPMI); assay: FICI minimum (fractional inhibitory concentration index, Loewe) (dimensionless); higher = less synergy / more antagonism; conditions: temperature: 37 °C
No unit in the answer, please; the number alone is enough.

INSERT INTO results (molecule, number) VALUES
  ('COc1c(C)c2c(c(O)c1C/C=C(\C)CCC(=O)O)C(=O)OC2 [mycophenolic acid] + CCC(C)n1ncn(-c2ccc(N3CCN(c4ccc(OCC5COC(Cn6cncn6)(c6ccc(Cl)cc6Cl)O5)cc4)CC3)cc2)c1=O [itraconazole]', 0.508);

Qu. Look up FICI minimum for this molecule: CN(Cc1cnc2nc(N)nc(N)c2n1)c1ccc(C(=O)N[C@@H](CCC(=O)O)C(=O)O)cc1 [methotrexate] + C[C@@H]1[C@H](O)[C@@H](C)/C=C/C=C/C=C/C=C/C=C/C=C/C=C/[C@H](O[C@@H]2O[C@H](C)[C@@H](O)[C@H](N)[C@@H]2O)C[C@@H]2O[C@](O)(C[C@@H](O)C[C@@H](O)[C@H](O)CC[C@@H](O)C[C@@H](O)CC(=O)O[C@H]1C)C[C@H](O)[C@H]2C(=O)O [amphotericin B]
Ans. 2

Qu. Lookup CC1(C)S[C@@H]2[C@H](NC(=O)[C@H](N)c3ccc(O)cc3)C(=O)N2[C@H]1C(=O)O [amoxicillin] + OC(Cn1cncn1)(Cn1cncn1)c1ccc(F)cc1F [fluconazole]
Ans. 1.02

Qu. Lookup COc1c(C)c2c(c(O)c1C/C=C(\C)CCC(=O)O)C(=O)OC2 [mycophenolic acid] + C[C@@H]1[C@H](O)[C@@H](C)/C=C/C=C/C=C/C=C/C=C/C=C/C=C/[C@H](O[C@@H]2O[C@H](C)[C@@H](O)[C@H](N)[C@@H]2O)C[C@@H]2O[C@](O)(C[C@@H](O)C[C@@H](O)[C@H](O)CC[C@@H](O)C[C@@H](O)CC(=O)O[C@H]1C)C[C@H](O)[C@H]2C(=O)O [amphotericin B]
Ans. 0.5

---

test system: Candida glabrata ZIM 2369 (RPMI); test: Bliss independence sum of statistically significant ΔE (measured minus predicted growth inhibition) over checkerboard surface (fraction (sum of ΔE; 1 = 100%)); higher = more synergy; details: temperature: 37 °C
Below, each of the compounds is paired with its reported Bliss independence sum value.
No unit in the answer, please; the number alone is enough.

Take a look at these entries with their results.
INSERT INTO measurements (compound, number) VALUES
  ('CN(Cc1cnc2nc(N)nc(N)c2n1)c1ccc(C(=O)N[C@@H](CCC(=O)O)C(=O)O)cc1 [methotrexate] + C[C@@H]1[C@H](O)[C@@H](C)/C=C/C=C/C=C/C=C/C=C/C=C/C=C/[C@H](O[C@@H]2O[C@H](C)[C@@H](O)[C@H](N)[C@@H]2O)C[C@@H]2O[C@](O)(C[C@@H](O)C[C@@H](O)[C@H](O)CC[C@@H](O)C[C@@H](O)CC(=O)O[C@H]1C)C[C@H](O)[C@H]2C(=O)O [amphotericin B]', 0.0762),
  ('C=CC[C@@H]1/C=C(\C)C[C@H](C)C[C@H](OC)[C@H]2O[C@@](O)(C(=O)C(=O)N3CCCC[C@H]3C(=O)O[C@H](/C(C)=C/[C@@H]3CC[C@@H](O)[C@H](OC)C3)[C@H](C)[C@@H](O)CC1=O)[C@H](C)C[C@@H]2OC [tacrolimus] + CCC(C)n1ncn(-c2ccc(N3CCN(c4ccc(OCC5COC(Cn6cncn6)(c6ccc(Cl)cc6Cl)O5)cc4)CC3)cc2)c1=O [itraconazole]', 3.73),
  ('CC1(C)S[C@@H]2[C@H](NC(=O)[C@H](N)c3ccc(O)cc3)C(=O)N2[C@H]1C(=O)O [amoxicillin] + OC(Cn1cncn1)(Cn1cncn1)c1ccc(F)cc1F [fluconazole]', 1.02),
  ('COc1c(C)c2c(c(O)c1C/C=C(\C)CCC(=O)O)C(=O)OC2 [mycophenolic acid] + OC(Cn1cncn1)(Cn1cncn1)c1ccc(F)cc1F [fluconazole]', -2.4),
  ('CN(Cc1cnc2nc(N)nc(N)c2n1)c1ccc(C(=O)N[C@@H](CCC(=O)O)C(=O)O)cc1 [methotrexate] + OC(Cn1cncn1)(Cn1cncn1)c1ccc(F)cc1F [fluconazole]', 0.22);

Qu. Look up Bliss independence sum for this compound: COc1c(C)c2c(c(O)c1C/C=C(\C)CCC(=O)O)C(=O)OC2 [mycophenolic acid] + C[C@@H]1[C@H](O)[C@@H](C)/C=C/C=C/C=C/C=C/C=C/C=C/C=C/[C@H](O[C@@H]2O[C@H](C)[C@@H](O)[C@H](N)[C@@H]2O)C[C@@H]2O[C@](O)(C[C@@H](O)C[C@@H](O)[C@H](O)CC[C@@H](O)C[C@@H](O)CC(=O)O[C@H]1C)C[C@H](O)[C@H]2C(=O)O [amphotericin B]
Ans. 0.709

Qu. Lookup CN(Cc1cnc2nc(N)nc(N)c2n1)c1ccc(C(=O)N[C@@H](CCC(=O)O)C(=O)O)cc1 [methotrexate] + CCC(C)n1ncn(-c2ccc(N3CCN(c4ccc(OCC5COC(Cn6cncn6)(c6ccc(Cl)cc6Cl)O5)cc4)CC3)cc2)c1=O [itraconazole]
Ans. -0.495

Qu. Lookup CC1(C)S[C@@H]2[C@H](NC(=O)[C@H](N)c3ccc(O)cc3)C(=O)N2[C@H]1C(=O)O [amoxicillin] + C[C@@H]1[C@H](O)[C@@H](C)/C=C/C=C/C=C/C=C/C=C/C=C/C=C/[C@H](O[C@@H]2O[C@H](C)[C@@H](O)[C@H](N)[C@@H]2O)C[C@@H]2O[C@](O)(C[C@@H](O)C[C@@H](O)[C@H](O)CC[C@@H](O)C[C@@H](O)CC(=O)O[C@H]1C)C[C@H](O)[C@H]2C(=O)O [amphotericin B]
Ans. -0.462

Qu. Lookup C=CC[C@@H]1/C=C(\C)C[C@H](C)C[C@H](OC)[C@H]2O[C@@](O)(C(=O)C(=O)N3CCCC[C@H]3C(=O)O[C@H](/C(C)=C/[C@@H]3CC[C@@H](O)[C@H](OC)C3)[C@H](C)[C@@H](O)CC1=O)[C@H](C)C[C@@H]2OC [tacrolimus] + OC(Cn1cncn1)(Cn1cncn1)c1ccc(F)cc1F [fluconazole]
Ans. 1.98

Origin of values: the supplement of paper PMC6004109
